tested system: T1, porcine acylamino-acid-releasing enzyme (AARE or APEH) (porcine, UniProt P19205 1-732, limits assumed)
T1 construct: also called porcine APEH; porcine AARE
T1 sequence (looked up): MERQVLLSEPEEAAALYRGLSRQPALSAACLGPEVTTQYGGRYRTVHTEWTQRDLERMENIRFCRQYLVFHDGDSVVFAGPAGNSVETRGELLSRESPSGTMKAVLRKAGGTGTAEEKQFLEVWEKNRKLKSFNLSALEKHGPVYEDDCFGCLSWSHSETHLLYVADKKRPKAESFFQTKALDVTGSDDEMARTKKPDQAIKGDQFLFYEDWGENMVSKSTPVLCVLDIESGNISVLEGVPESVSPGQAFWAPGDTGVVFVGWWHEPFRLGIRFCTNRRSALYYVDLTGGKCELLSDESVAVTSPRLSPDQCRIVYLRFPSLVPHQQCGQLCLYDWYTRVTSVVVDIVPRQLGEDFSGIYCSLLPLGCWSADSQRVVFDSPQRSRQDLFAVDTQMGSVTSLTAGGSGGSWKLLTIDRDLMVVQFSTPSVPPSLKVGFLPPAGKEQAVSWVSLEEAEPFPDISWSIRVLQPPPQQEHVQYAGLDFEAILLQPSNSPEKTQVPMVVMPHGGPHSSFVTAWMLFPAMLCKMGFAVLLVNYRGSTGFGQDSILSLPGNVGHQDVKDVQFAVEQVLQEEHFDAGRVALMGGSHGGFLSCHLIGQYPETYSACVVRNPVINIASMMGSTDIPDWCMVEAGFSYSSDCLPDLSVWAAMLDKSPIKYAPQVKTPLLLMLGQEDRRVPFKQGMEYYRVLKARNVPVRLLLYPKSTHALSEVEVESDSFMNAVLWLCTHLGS
assay text: enzyme inhibition kinetics, Lineweaver-Burk plot, competitive inhibition
Where no end group is shown, it is not given here.
endpoint name: Ki (µM)
One number for each entry, in µM.

Lab note: TILAEIKNINAD-NH2 (also called Peptide 4) [Compound 4 or SsCEI 4] gave Ki of 4
